# Test Protocol: gradient 5% acetonitrile 3 min, to 50% in 2 min, to 85% in 15 min, held 3 min, 100 µL/min
# Assay Context: column: Zorbax Extend-C18 2.1 x 50 mm; eluents: water / acetonitrile, 0.1% formic acid

Compound | Measurement Unit | RP-LC retention time
O=C(c1nccc2ccccc12)N1C[C@@H](CO)[C@H](c2ccccn2)C1 | s | 578
Cc1cc(-c2nnc(NC(=O)C(C)(C)Oc3ccc(Cl)cc3)o2)c(C)o1 | s | 955
CC1Oc2ccc(S(=O)(=O)N3CCC(C(=O)Nc4ccc(F)cc4)CC3)cc2NC1=O (centres undefined) | s | 829
Cn1nc(N)c2ncc(C(Cl)(Cl)Cl)nc21 | s | 876
CN1CCN(CCCNC(=O)CCCn2c(=O)c3cccn3c3ccc(F)cc32)CC1 | s | 582
CCC(=O)N1CCc2cc(S(=O)(=O)CCC(=O)N3CCN(c4ccc(C)cc4)C(C)C3)ccc21 (centres undefined) | s | 704
Cc1ccc(C)c(-c2coc(-c3ccc(NC(=O)CC(C)C)cc3)n2)c1 | s | 1260
Cc1cccc(-c2noc(C3CCCN3C(=O)Nc3ccc(F)cc3)n2)c1 (centres undefined) | s | 1010
CCCCn1nc2ccc(S(=O)(=O)N3CCCCC3)cn2c1=O | s | 887
